tested on: Saccharomyces cerevisiae; assay: protein stability index of tFT-peptide fusion (C-terminal peptide) (PSI (0-1 scale)); higher = more stable (slower turnover); settings: genetic background: wild type; temperature: 30 C;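 also: PSI is a weighted mean of sequencing reads over stability bins, variants kept only with over 10 reads, mCherry proximal and sfGFP distal, peptide attached via GGGS linker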
Kindly state protein stability index for each of the entries shown.
Give bare numbers.

Solved cases (9 shown):
>>> df
   ordered_residues  result_number
0      APPPAYGPPPPP          0.692
1      PATKQFLLRGGR          0.713
2      SGWRCSVAVLQV          0.592
3      NRQNNYANDIQK          0.713
4      KMKGLINKRKES          0.219
5      PLFRHAPPSTLH          0.739
6      PPPLLPPHLPLL          0.717
7      ALIYMRGLGRFF          0.555
8      IKREATNASEPN          0.686

Quick check: protein stability index of RVIEWHEEKLRV ?
0.783

# credit: the supplement of paper PMC10724198
